- assay_info: CHI lipophilicity by gradient reversed-phase HPLC (Gemini NX-C-18)
- run_conditions: reversed-phase HPLC, Gemini NX-C-18 column (50 x 3 mm, 5 µm)
metric: chromatographic logP
# output: bare number, no unit

The measured chromatographic logP associated with CC[C@H]1OC(=O)[C@H](C)[C@@H](O[C@H]2C[C@@](C)(OC)[C@@H](O)[C@H](C)O2)[C@H](C)[C@@H](O[C@@H]2O[C@H](C)C[C@H](N(C)C)[C@H]2O)[C@](C)(O)C[C@@H](C)C(=O)[C@H](C)[C@@H](O)[C@]1(C)O [Erythromycin] reads 2.6

Entry COC(=O)C1=C(C)NC(C)=C(C(=O)OC(C)C)C1c1cccc2nonc12 (centres unmarked) [Isradipine] , chromatographic logP reported as 3.29

# chromatographic logP of O=c1[nH]c2ccccc2n1C1CCN(CCCC(c2ccc(F)cc2)c2ccc(F)cc2)CC1 [Pimozide] = 3.89

Documented chromatographic logP of CC(C)COCC(CN(Cc1ccccc1)c1ccccc1)N1CCCC1 (centres unmarked) [Bepridil] : 6.62

Value of measured chromatographic logP for the entry Nc1nnc(-c2cccc(Cl)c2Cl)c(N)n1 [Lamotrigine] : 0.81

Record Cc1nccn1CC1CCc2c(c3ccccc3n2C)C1=O (centres unmarked) [Ondansetron] . Reported chromatographic logP: 1.66

For CC(C)(C)c1ccc(C(=O)CCCN2CCC(OC(c3ccccc3)c3ccccc3)CC2)cc1 [Ebastine] the molecule record lists chromatographic logP as 6.54

Just so you know, measured chromatographic logP for COc1ccc(CCN2CCC(Nc3nc4ccccc4n3Cc3ccc(F)cc3)CC2)cc1 [Astemizole] came out at 3.52

---

- assay_info: CHI lipophilicity by gradient reversed-phase HPLC (Gemini NX-C-18)
- run_conditions: Gemini NX-C-18 reversed-phase HPLC column, pH 7.4
- Protocol: The Chromatographic Hydrophobicity Index (CHI) was measured using the compounds’ calibrated gradient retention times obtained from an Agilent 1100 HPLC fitted with a Gemini NX-C-18 column (Phenomenex Ltd Macclesfield, UK) with dimensions of 50 x 3 mm and 5 μm particle size. […] The mobile phase B was 100 % acetonitrile. […] An acetonitrile linear gradient was used from 0 to 100 %. […]
metric: chromatographic logD
Would you mind answering with just the numeric figure?

Entry `CC(C)(C)c1ccc(C(=O)CCCN2CCC(OC(c3ccccc3)c3ccccc3)CC2)cc1` — recorded chromatographic logD = 4.96

According to the records, this compound CC(C)COCC(CN(Cc1ccccc1)c1ccccc1)N1CCCC1 (stereo not shown) displays chromatographic logD of 4.4

chromatographic logD in this record for `CN(C)CCC=C1c2ccccc2CCc2ccccc21` : 2.65

Form field chromatographic logD, entry `CC[C@H]1OC(=O)[C@H](C)[C@@H](O[C@H]2C[C@@](C)(OC)[C@@H](O)[C@H](C)O2)[C@H](C)[C@@H](O[C@@H]2O[C@H](C)C[C@H](N(C)C)[C@H]2O)[C@](C)(O)C[C@@H](C)/C(=N\OCOCCOC)[C@H](C)[C@@H](O)[C@]1(C)O` : 1.95

Documented chromatographic logD of CCC1=C(C)CN(C(=O)NCCc2ccc(S(=O)(=O)NC(=O)N[C@H]3CC[C@H](C)CC3)cc2)C1=O [Glimepiride] : 2.42

For reference, reported chromatographic logD for COc1cc2nc(N3CCN(C(=O)C4COc5ccccc5O4)CC3)nc(N)c2cc1OC (stereo not shown) stands at 2.09

Consider `O=C1Cc2cc(CCN3CCN(c4nsc5ccccc45)CC3)c(Cl)cc2N1` . Its measured chromatographic logD is 2.98

---

- assay_info: CHI lipophilicity by gradient reversed-phase HPLC (Gemini NX-C-18)
- run_conditions: reversed-phase HPLC, Gemini NX-C-18 column (50 x 3 mm, 5 µm)
metric: chromatographic logP
No unit in the answer, only the number.

The measured chromatographic logP associated with CC(C)(C)NC(=O)[C@@H]1C[C@@H]2CCCC[C@@H]2CN1C[C@@H](O)[C@H](Cc1ccccc1)NC(=O)[C@H](CC(N)=O)NC(=O)c1ccc2ccccc2n1 [Saquinavir] reads 3.39

Recorded chromatographic logP (molecule CN(C)CCC=C1c2ccccc2CCc2ccccc21 [Amitriptyline] ): 5.21

chromatographic logP reported for this molecule O=C(CCCN1CC=C(n2c(=O)[nH]c3ccccc32)CC1)c1ccc(F)cc1 [Droperidol] : 2.68

For reference, reported chromatographic logP for CN1CCc2cccc3c2[C@H]1Cc1ccc(O)c(O)c1-3 [Apomorphine] stands at 2.66

The molecule listed as CNCCCC1c2ccccc2C=Cc2ccccc21 [Protriptyline] has a reported chromatographic logP of 4.7

chromatographic logP measured on COc1cc2nc(N3CCN(C(=O)C4COc5ccccc5O4)CC3)nc(N)c2cc1OC (stereo not shown) [Doxazosin] = 2.24

Consider CC[C@H]1OC(=O)[C@H](C)[C@@H](O[C@H]2C[C@@](C)(OC)[C@@H](O)[C@H](C)O2)[C@H](C)[C@@H](O[C@@H]2O[C@H](C)C[C@H](N(C)C)[C@H]2O)[C@](C)(OC)C[C@@H](C)C(=O)[C@H](C)[C@@H](O)[C@]1(C)O [Clarithromycin] . Its measured chromatographic logP is 4.55

chromatographic logP reading for CNCCCC12CCC(c3ccccc31)c1ccccc12 [Maprotiline] : 4.79

Notebook: CN1CCN(CCCN2c3ccccc3Sc3ccc(C(F)(F)F)cc32)CC1 [Trifluoperazine] , chromatographic logP read as 5.14

So for CN1CCC[C@@H]1CCO[C@](C)(c1ccccc1)c1ccc(Cl)cc1 [Clemastine] , the logged chromatographic logP turned out to be 3.18

---

- assay_info: Charge character of the drugs at pH 7.4
- Format: physicochemical
metric: Charge

compound	Charge
CCN(CC)CCNC(=O)c1cc(Cl)c(N)cc1OC [Metoclopramide]	Basic
COc1ccc(CCN2CCC(Nc3nc4ccccc4n3Cc3ccc(F)cc3)CC2)cc1 [Astemizole]	Basic
Cc1nc2n(c(=O)c1CCN1CCC(c3noc4cc(F)ccc34)CC1)CCCC2 [Risperidone]	Weak Base
O=C(CCCN1CC=C(n2c(=O)[nH]c3ccccc32)CC1)c1ccc(F)cc1 [Droperidol]	Weak Base
CC1COc2c(N3CCN(C)CC3)c(F)cc3c(=O)c(C(=O)O)cn1c23 (stereo not shown) [Ofloxacin]	Zwitterionic

Measured Charge of O=C1Cc2cc(CCN3CCN(c4nsc5ccccc45)CC3)c(Cl)cc2N1 [Ziprasidone] : Weak Base

---

- assay_info: CHI lipophilicity by gradient reversed-phase HPLC (Gemini NX-C-18)
- run_conditions: reversed-phase HPLC, Gemini NX-C-18 column (50 x 3 mm, 5 µm)
Under this convention, yes denotes chromatographic logP strictly below 3 and no denotes chromatographic logP at or above 3.

Request: hey, is chromatographic logP for `CCCc1nn(C)c2c(=O)[nH]c(-c3cc(S(=O)(=O)N4CCN(C)CC4)ccc3OCC)nc12` lower than 3 or not?
Result: yes

Request: Confirm or reject: chromatographic logP of NC(=O)N1c2ccccc2C=Cc2ccccc21 [Carbamazepine] lies strictly below 3
Result: yes

Request: For this compound, is chromatographic logP lower than 3? CC(C)NCC(O)c1ccc(NS(C)(=O)=O)cc1 (stereo not shown)
Result: yes

Request: Criterion: chromatographic logP strictly below 3. Is it met by `CC[C@H]1OC(=O)[C@H](C)[C@@H](O[C@H]2C[C@@](C)(OC)[C@@H](O)[C@H](C)O2)[C@H](C)[C@@H](O[C@@H]2O[C@H](C)C[C@H](N(C)C)[C@H]2O)[C@](C)(O)C[C@@H](C)/C(=N\OCOCCOC)[C@H](C)[C@@H](O)[C@]1(C)O` ?
Result: no

Request: A record lists `O=c1[nH]c2ccccc2n1CCCN1CCC(n2c(=O)[nH]c3cc(Cl)ccc32)CC1` . Is its chromatographic logP below 3?
Result: yes

Request: Here's an entry: `COc1ccc(CN(CCN(C)C)c2ccccn2)cc1` . Is its chromatographic logP below 3?
Result: no

Request: Lab note: confirm whether the reported chromatographic logP for this compound is below 3, equality not counting. compound: CCC1=C(C)CN(C(=O)NCCc2ccc(S(=O)(=O)NC(=O)N[C@H]3CC[C@H](C)CC3)cc2)C1=O [Glimepiride]
Result: no

Request: Is chromatographic logP strictly under 3 for the entry `O=c1n(CCCN2CCN(c3cccc(Cl)c3)CC2)nc2ccccn12` ?
Result: yes

Request: API: query returns whether the compound falls strictly under 3 in chromatographic logP. Query: CN1C2CCCC1CC(NC(=O)c1nn(C)c3ccccc13)C2 (stereo not shown)
Result: yes

Request: Find out if reported chromatographic logP for CN(CCOc1ccc(NS(C)(=O)=O)cc1)CCc1ccc(NS(C)(=O)=O)cc1 [Dofetilide] is less than 3
Result: yes

Request: Say whether its chromatographic logP is strictly beneath 3. Entry: `CC(C)c1nc(CN(C)C(=O)N[C@H](C(=O)N[C@@H](Cc2ccccc2)C[C@H](O)[C@H](Cc2ccccc2)NC(=O)OCc2cncs2)C(C)C)cs1`
Result: no

Request: Answer whether the compound OC(c1cc(C(F)(F)F)nc2c(C(F)(F)F)cccc12)C1CCCCN1 (stereo not shown) has chromatographic logP strictly less than 3
Result: no

Taken from paper PMC8920097.
